- assayText: soluble fraction after stress (log2 fold change); higher = more stays soluble; pooled small domains, quantitative proteomics;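 note: 20 min heating vs room temperature control held 20 min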
- assayContext: stress: 75 degC
Given measured soluble fraction (log2), output T if it is greater than or equal to -0.3 and F if not.

{"seq": "HMTFSDKIRELRKQKGVSQAVVAEYLGITKQAYSLYETGKREPDFDSLLKLAEYFGTDTDSLLY", "labelValue": "F"}
{"seq": "HMQVSDVTELRTILEKVITENESVATEFKEGKDAAMNFLVGQGMKATRGAADPALLKEIITGIL", "labelValue": "T"}
{"seq": "HMGDWEDFWEKEARRRKLSLDYQVVRSLSRWSREYDWGEEDVEQFLSQFPEGETVKMEDVELYFE", "labelValue": "F"}
{"seq": "HMVYLPGEEIPLKIIQEGKESGQGVGYLEDGTMVVVENGRRYLNQEVLVQVTKILQTNAGRLIFAVP", "labelValue": "F"}
{"seq": "HMRYWVKSETDFLIENRGKYSYQEFADMLGRSYAVVYDKMHQLKIDYTKEELEIFDEKHKAQMREKQQR", "labelValue": "F"}
{"seq": "HMFEQRLRQAMKELRLKQVQVAGLTGKSRGAISQYLSGDRVPPDGVQREMAIALGLEADYFSR", "labelValue": "F"}
{"seq": "HMDAVSTMIENLRVKTGKSLADWVGLAKGSGADKHGAMVGWLKSEHGLTHGYANLIAHETFRSAA", "labelValue": "T"}
{"seq": "HMQEPVHFTRRERQVLSLILSGQATAEIAKTLGIANATVTTYKKSLYSKSGTNSLSRLLIWAMVRR", "labelValue": "F"}
{"seq": "HMGAATQADIARVQELLNRLGYDAGSPDGLMGPRTRDAILEYQLTEGLETTGTVTRETLASLEARL", "labelValue": "T"}
{"seq": "HMAGLKERLFYFIEYKGLTVQSFEKTVGLSNGAVSKMGDNTRRSTIDKISNFFGDLNKNWLLTGEGEMLI", "labelValue": "F"}
{"seq": "HMINFSKNIISDTTSIKEAIEILNIISGRDNHILFVLNDKRQLIGTLSDGDVRRGMLASKTISQSVTEVM", "labelValue": "F"}
{"seq": "HMEIGELITLYRKQAGLTIDELSEKANVPKGTLNKIIGGITKAPTLETMRSIAYALGKKLADFDN", "labelValue": "F"}
{"seq": "HMRMQRYYLTDMSEKGREALPGVLDEMGYAGRYTMSDNSIAINSNMIVLSKAIKRAEDIAHNE", "labelValue": "T"}
{"seq": "HMFPTLNEDEQTIVSALQKINDQPINTLSIHTALPIPRLTSLLFQLEIKGVIKQLAGGTYHVL", "labelValue": "F"}
{"seq": "HMNMGEKIRSLIGQFGVTSEDLKNLSVANLLIRMNQEAGDSKTKGILASLLETVNKAGVGNLTPDALGIK", "labelValue": "T"}
{"seq": "HMVELVKVPALQGETVDEAIADIKDAGLEPGQVRYVESDLPKDTVTYQSVDAGEQVKAGTVINLQASKGP", "labelValue": "T"}
{"seq": "HMVDYIGRRGVMLSTVSEEKMGNAEVVIDGNSYNIYVKSLDGSTIAYHQEILIINKSKDNNYFLVQIY", "labelValue": "F"}
{"seq": "HMGVGERIKARRKEIGLSAEQVAKELGVSPATVYRYESNDIMNMRIDKLEPIAKALHTTPAYLMGWE", "labelValue": "T"}
{"seq": "HMELTVPDFTNMSLEDAINLAEKRDVRLEVTDSVFVKRLGRGFIYSQNPVAGSKVKKGRRILITINAIN", "labelValue": "F"}
{"seq": "HMKYWTISDLYSKLEEDQVELGAFSEDSNKVTVLDRQGYEHVIKILSSDVPALTELFRKKKVRFAVAG", "labelValue": "F"}
{"seq": "HMLIGLNETESLVLDALIANPMRIDQVSAMLKKDVATTLKFLGGLSVRGLVETLFGGRFAPTKIALHARS", "labelValue": "T"}
{"seq": "HMSEYITEGWLREKFGLGWGTEVHLPLDSRLTPAAHQLLEERKIVIKYIDAEGRVFNPDKSGEEAPVQ", "labelValue": "F"}
{"seq": "HMEQVLNVAVRRGELIMSSAAEQTVRIYSSAGSMVWQGKVSASDVTVELPSGVYVVNGKKVV", "labelValue": "F"}
{"seq": "HMATARPPPPPESRVEVLFDGRWYAGTVVGGALDEHRATVFFDADRLSQVINFAETGIRVLGT", "labelValue": "T"}
{"seq": "HMGKIINMSKVKQVLRLHTQGVSNRRIALDLGLYKGTVNSYIRKIKDHGYDIAEVLKLDDPVLESKLFA", "labelValue": "F"}
{"seq": "HMNNVDIMGRMVYDDQHREVINFGKYKGVLVTEVLKKDPGYFSWIQQGDFPSDMKRIMMAIKLRM", "labelValue": "F"}
{"seq": "HMNSSTVDLAKEFLIDLLSSVEKMPASEVQEEAKNAGYSVASIRRAKDNLNIKPFKDGSAWYWKLPSIFK", "labelValue": "F"}
{"seq": "HMDAEEISILLEKAVLQLPEKQKMIFQLKYFEDLSYKDIQIITGGSIGGLKANYHHAVTKIEKLLS", "labelValue": "T"}
{"seq": "HMINIQYSYNDGKETLHNLSPEVIAEKIMDDPNGYHIVWKQGMVGWVNANDIDDIAKLLRQKK", "labelValue": "F"}
{"seq": "HMNADAIVGRTGVVTEAIAADGFGRVQIDGDSWKAKASGNNGIDVGAKVRVLRIDSIILTVEK", "labelValue": "F"}
{"seq": "HMGDYDHYVVKVEDTLLNWLVTNVTTMSRNKLKDILAGQGIKVNGKITTKYDYPLTPGMKIAISKTKR", "labelValue": "F"}
{"seq": "HMKNEYAMVIQVNGKLRGNMLVSADLEQKDIERMALDNEDIKRFISHENDVKKMIFVPKKLINIVT", "labelValue": "F"}
{"seq": "HMQISGIHLYERRITKDDEWAERKLSEISLAGSLVILILRNEHVVIPNGETVLKENDLLYISD", "labelValue": "F"}
